Reported hAM1R EC50 (cAMP) is given for each of the following binders.
Target: hAM1R (human, UniProt Q16602)
Experiment: cell-based or functional assay
Numbered stars: 1 amine (or outer) side, 2 acyl side, 3 side chain; on linkers, the order of the positions; unused ones are H or OH. Bridge positions count the residues as written; N and C are the ends. Square brackets hold non-standard residues; d marks the D form. Ends that are not written are not given here. * marks the point of attachment. C20 diacid = O=C(O)CCCCCCCCCCCCCCCCCCC(=O)*; γGlu = O=C(O)[C@H](CCC(=O)[*:2])N[*:1]; Hyp = O=C(O)[C@@H]1C[C@@H](O)CN1; Cit = NC(=O)NCCC[C@H](N)C(=O)O

{C20 diacid-γGlu}-KCNTATCTVQRLAHQIYQFADKDKDNVAPPTNVGSNG[Hyp]-NH2 (disulfide 2-7 (inferred); not fully specified; ends not checked) [SEQ ID NO: 83] :: 815 nM
KCNTATCTVQWLAHQIYQFTDKDKDNAAPPTNVGSNG[Hyp]-NH2 (disulfide 2-7 (inferred); ends not checked) [SEQ ID NO: 315] :: > 5000 nM

Query: I have this binder here, GCRFGTCTVQ[Cit]LAHQIYQFTDKDKDNVAPRTNVGPQG[Hyp]-NH2 (disulfide 2-7 (inferred); ends not checked) [SEQ ID NO: 267] , and I need its recorded hAM1R EC50 (cAMP).
Reply: 2490 nM

Query: I have this binder here, GCRFGTCTVQ[Cit]LAHQIYQFTDKDKDNVAPRSKIGPQG[Hyp]-NH2 (disulfide 2-7 (inferred); ends not checked) [SEQ ID NO: 284] , and I need its recorded hAM1R EC50 (cAMP).
Reply: 591 nM

Data origin: patent US12139520B2
